# tested system: T1, SARS-CoV-2 RBD subunit (recombinant) (SARS-CoV-2 Wuhan-Hu-1, UniProt P0DTC2)
# T1 construct: source: bought: Sino Biologics
# method: ELISA
# experimental context: both partners purified
parameter: binding result

| binder | parameter | test result |
| --- | --- | --- |
| C68.200 (antibody, V domains shown) VH: EVQLLESGGGLVQPGGSLRLSCTASGFTFSRYALTWVRQAPGKGLEWVSAISGSGGNTNYADSVKGRFTISRDNSKNTLYLQMNSLRAEDTAVYYCAKSPRYNNDYFDFWGQGTLVTVSS VL: DIQLTQSPSTLSASVGDRVTITCRASQSISSWLAWYQQKPGKAPKLLIYDASSLESGVPSRFSGSGSGTEFTLTISSLQPDDFATYYCQQYNTFITFGHGTRLEIK | binding result | binds |
| C68.239 (antibody, V domains shown) VH: EVQLLESGGGLVQPGGSLRLSCAASGFTFSSYAMSWVRQAPGKGLEWVSAISGGGDNTYYADSVKGRFTISRDNSKNTLYLQMNSLRAEDTAVYFCAKNPITVVPAAWDRGYFDLWGRGTLVTVSS VL: SYELTQPPSVSVAPRKTARITCGGNNIGSYSVHWYQQRPGQAPVLVVHDDSDRPSGIPERFSGSNSGNTATLTISRVEAGDEADYYCQVWDSSSDHRGVFGGGTKLTVL | binding result | binds |
| C68.327 (antibody, V domains shown) VH: EVQLLESGGGLVQPGGSLRLSCAASGFTFGSYAMSWVRQAPGKGLEWVSAISGSGGSTYYADSVKGRFTISRDNSKNTLYLQMNSLRAEDTAVYNCAKDLWDGFHWFDSWGQGTLVTVSS VL: DIQMTQSPSSVSASVGDRVTITCRASQGISSWLAWYQQKPGKAPNLLIYSASSLQSGVPSRFSGSGSGTDFTLTISSLQPEDFATYYCQQANSFPITFGQGTRLEIK | binding result | binds |
